- Tested on: Escherichia coli TOP10
- Assay notes: shrunken log2 fold change of peptide-encoding DNA abundance (4.5 h post-induction vs induction); higher = less antimicrobial activity (less host growth inhibition)
- Run parameters: time post-induction: 4.5 h; library: site-saturation at positions 5, 18, 19, 20
Here, each record is paired with measured shrunken log2 fold change data.
Reply with the value as a number alone.

Sample records with shrunken log2 fold change:
RRIRQRPPRLPRPRPRPVCYPRP    -0.636
RRIRERPPRLPRPRPRPDDQPRP    -0.252
RRIRLRPPRLPRPRPRPLGFPRP    0.38
RRIRTRPPRLPRPRPRPHETPRP    -0.00261

Ask: Note shrunken log2 fold change for the sequence shown: "RRIRDRPPRLPRPRPRPHGIPRP"
Reply: -0.265

Ask: Note shrunken log2 fold change for the sequence shown: "RRIRQRPPRLPRPRPRPHHSPRP"
Reply: -0.107

Ask: Note shrunken log2 fold change for the sequence shown: "RRIRGRPPRLPRPRPRPPWCPRP"
Reply: 0.491

Ask: Note shrunken log2 fold change for the sequence shown: "RRIRMRPPRLPRPRPRPDMLPRP"
Reply: 0.0647

Ask: Note shrunken log2 fold change for the sequence shown: "RRIRIRPPRLPRPRPRPWSPPRP"
Reply: -0.269

Ask: Note shrunken log2 fold change for the sequence shown: "RRIRFRPPRLPRPRPRPPKVPRP"
Reply: 0.0991

Ask: Note shrunken log2 fold change for the sequence shown: "RRIRRRPPRLPRPRPRPINGPRP"
Reply: -0.0719

Ask: Note shrunken log2 fold change for the sequence shown: "RRIRWRPPRLPRPRPRPYELPRP"
Reply: -0.0904

Ask: Note shrunken log2 fold change for the sequence shown: "RRIRWRPPRLPRPRPRPPKWPRP"
Reply: 0.627

Ask: Note shrunken log2 fold change for the sequence shown: "RRIRLRPPRLPRPRPRPPCEPRP"
Reply: 0.123

---

- System: Escherichia coli TOP10;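 also: peptides expressed intracellularly from a pBAD plasmid library in pooled LB shake-flask culture, induced with 0.3% L-arabinose, DNA abundance read by NGS, three biological replicates, DESeq2 with apeglm shrinkage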
- Assay notes: shrunken log2 fold change of peptide-encoding DNA abundance (4.5 h post-induction vs induction); higher = less antimicrobial activity (less host growth inhibition)
- Run parameters: time post-induction: 4.5 h; library: site-saturation at positions 5, 18, 19, 20
Measurement label: shrunken log2 fold change
Reply with the value as a number alone.

Sample records with shrunken log2 fold change:
RRIRSRPPRLPRPRPRPEFSPRP    0.203
RRIRWRPPRLPRPRPRPLWNPRP    0.169
RRIRPRPPRLPRPRPRPMFMPRP    0.0765
RRIRMRPPRLPRPRPRPMRSPRP    1.67
RRIRGRPPRLPRPRPRPYFHPRP    -0.462
RRIRNRPPRLPRPRPRPEDWPRP    -0.0232
RRIRFRPPRLPRPRPRPELDPRP    0.0203
RRIRPRPPRLPRPRPRPRGYPRP    0.523
RRIRKRPPRLPRPRPRPYANPRP    -0.091
RRIRVRPPRLPRPRPRPWNKPRP    -0.635

Ask: Note shrunken log2 fold change for the sequence shown: "RRIRWRPPRLPRPRPRPTKLPRP"
Reply: 0.156

Ask: Note shrunken log2 fold change for the sequence shown: "RRIRNRPPRLPRPRPRPSKMPRP"
Reply: -0.22

Ask: Note shrunken log2 fold change for the sequence shown: "RRIRHRPPRLPRPRPRPGTRPRP"
Reply: -0.13

Ask: Note shrunken log2 fold change for the sequence shown: "RRIRYRPPRLPRPRPRPYEEPRP"
Reply: -0.0354

Ask: Note shrunken log2 fold change for the sequence shown: "RRIRIRPPRLPRPRPRPAQNPRP"
Reply: -0.0711

Ask: Note shrunken log2 fold change for the sequence shown: "RRIRLRPPRLPRPRPRPTEMPRP"
Reply: 0.037

Ask: Note shrunken log2 fold change for the sequence shown: "RRIRPRPPRLPRPRPRPLWRPRP"
Reply: 0.446

Ask: Note shrunken log2 fold change for the sequence shown: "RRIRMRPPRLPRPRPRPYMIPRP"
Reply: -0.00479

Ask: Note shrunken log2 fold change for the sequence shown: "RRIRVRPPRLPRPRPRPNFKPRP"
Reply: -0.0173

Ask: Note shrunken log2 fold change for the sequence shown: "RRIRPRPPRLPRPRPRPNSRPRP"
Reply: -0.1

Ask: Note shrunken log2 fold change for the sequence shown: "RRIRGRPPRLPRPRPRPCVYPRP"
Reply: 0.486

Ask: Note shrunken log2 fold change for the sequence shown: "RRIRLRPPRLPRPRPRPHITPRP"
Reply: -0.824

Ask: Note shrunken log2 fold change for the sequence shown: "RRIRLRPPRLPRPRPRPYYCPRP"
Reply: -0.223

Ask: Note shrunken log2 fold change for the sequence shown: "RRIRRRPPRLPRPRPRPWWQPRP"
Reply: 0.0834
